molecular target: Cannabinoid-1 receptor (CB1R) (Rattus norvegicus); construct: The tissue obtained from the brain of SD rats was homogenized; from tissue; host or cells: brain of SD rats (membrane pellet of the homogenate); test: Cannabinoid-1 receptor (CB1R) binding affinity assay ([3H]CP-55940, rat CB-1 receptor binding protocol); details: brain tissue of SD rats, [3H]CP-55940, 30° C. 60 min; read-out: IC50
experimental.endpoint: pIC50
As a rule, pIC50 stands for the negative log10 of the concentration, concentration in M.

These solved cases illustrate the format of a correct answer.
compound=Cc1c(-c2ncc(C3CCCC3)s2)nn(-c2ccc(Cl)cc2Cl)c1-c1ccc(Cl)cc1 experimental_endpoint=pIC50 endpoint_value=7.16
compound=CCC1(c2nnc(-c3nn(-c4ccc(Cl)cc4Cl)c(-c4ccc(Cl)cc4)c3C)s2)CC1 experimental_endpoint=pIC50 endpoint_value=6.97
compound=Cc1c(-c2nnn(Cc3cccnc3)n2)nn(-c2ccc(Cl)cc2Cl)c1-c1ccc(Cl)cc1 experimental_endpoint=pIC50 endpoint_value=7.00
compound=CCc1c(-c2nnc(C3(c4ccc(Cl)cc4)CC3)s2)nn(-c2ccc(Cl)cc2Cl)c1-c1ccc(Cl)cc1 experimental_endpoint=pIC50 endpoint_value=8.40
compound=Cc1c(-c2nnc(C3(C)CC3)o2)nn(-c2ccc(Cl)cc2Cl)c1-c1ccc(Cl)cc1 experimental_endpoint=pIC50 endpoint_value=7.83
compound=CCC(C)(C)c1nnc(-c2nn(-c3ccccc3Cl)c(-c3ccc(Cl)cc3)c2C)s1 experimental_endpoint=pIC50 endpoint_value=7.93
compound=Cc1c(-c2nnc(CC(F)(F)F)s2)nn(-c2ccc(Cl)cc2Cl)c1-c1ccc(Cl)cc1 experimental_endpoint=pIC50 endpoint_value=6.99
compound=FC(F)(F)C1(c2nnc(-c3nn(-c4ccc(Cl)cc4Cl)c(-c4ccc(Cl)cc4)c3Cn3cncn3)s2)CCC1 experimental_endpoint=pIC50 endpoint_value=8.54
compound=Clc1ccc(-c2c(Cn3cncn3)c(-c3nnc(C4(c5ccc(Cl)cc5)CCC4)o3)nn2-c2ccc(Cl)cc2Cl)cc1 experimental_endpoint=pIC50 endpoint_value=8.47
compound=CCc1c(-c2nnc(C3(c4ccc(C)cc4)CC3)o2)nn(-c2ccc(Cl)cc2Cl)c1-c1ccc(Cl)cc1 experimental_endpoint=pIC50 endpoint_value=8.15

pIC50 lookup needed for `Cc1c(-c2cc(C(C)(C)C)on2)nn(-c2ccc(Cl)cc2Cl)c1-c1ccc(Cl)cc1` , thanks.
7.08

Item: `CCc1c(-c2nnc(C3(C)CC3)s2)nn(-c2ccc(Cl)cc2Cl)c1-c1ccc(Br)cc1`
7.93

Item: CC(O)c1c(-c2nnc(C(C)(C)C)s2)nn(-c2ccc(Cl)cc2Cl)c1-c1ccc(Br)cc1 (stereo not shown)
8.19

---

molecular target: Cannabinoid-1 receptor (CB1R) (Rattus norvegicus, UniProt P20272); construct: The tissue obtained from the brain of SD rats was homogenized; from tissue; host or cells: brain of SD rats (membrane pellet of the homogenate); assay: Cannabinoid-1 receptor (CB1R) binding affinity assay ([3H]CP-55940, rat CB-1 receptor binding protocol); details: brain tissue of SD rats, [3H]CP-55940, 30° C. 60 min; read-out: IC50
Sequence (P20272 whole entry): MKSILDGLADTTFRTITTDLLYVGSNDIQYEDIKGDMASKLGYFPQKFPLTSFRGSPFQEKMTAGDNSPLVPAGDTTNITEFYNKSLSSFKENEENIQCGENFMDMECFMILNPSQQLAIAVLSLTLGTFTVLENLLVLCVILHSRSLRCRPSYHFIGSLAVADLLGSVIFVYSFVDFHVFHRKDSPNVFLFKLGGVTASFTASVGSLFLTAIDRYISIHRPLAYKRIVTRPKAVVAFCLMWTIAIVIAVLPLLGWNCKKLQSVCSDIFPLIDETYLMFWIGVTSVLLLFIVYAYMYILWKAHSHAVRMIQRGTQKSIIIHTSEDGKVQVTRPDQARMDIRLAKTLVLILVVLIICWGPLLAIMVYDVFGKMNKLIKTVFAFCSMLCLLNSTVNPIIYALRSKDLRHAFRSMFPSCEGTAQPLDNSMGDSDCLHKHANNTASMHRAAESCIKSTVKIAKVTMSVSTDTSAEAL
experimental.endpoint: IC50 (nM)
Just the number please, in nM, no unit attached.

structure=Clc1ccc(-c2c(Cl)c(-c3nnc(C4CCC4)o3)nn2-c2ccc(Cl)cc2Cl)cc1 experimental_endpoint=IC50 unit_spec=nM endpoint_value=150
structure=Cc1c(-c2nnn(Cc3ccccc3)n2)nn(-c2ccc(Cl)cc2Cl)c1-c1ccc(Cl)cc1 experimental_endpoint=IC50 unit_spec=nM endpoint_value=105

IC50 lookup needed for `CCC(C)(C)c1nnc(-c2nn(-c3ccc(Cl)cc3)c(-c3ccc(Br)cc3)c2C)s1` , thanks.
134
